protocol_notes: chemical genetic growth profiling, strain panel (AID 1159580);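 also: tested at 20 µM; growth read once vehicle control cultures reached saturation at 30 °C; 1 = growth at the plate median or of vehicle wells; lower values mean less growth of the strain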
assay_setup: S. cerevisiae deletion strains, growth OD, locus YPR111W, strain DBF20, active compounds read low
Screen size: about 5,500 compounds; about 2,000 (36%) were called active. Another 18% or so got no clear call; they are omitted. The list shows a part of the results.
Item-by-item account of normalized growth
# answer = number (no unit)

Previously resolved entries follow.
molecule	normalized growth
O=C(NNc1ccc(Cl)cc1)c1ccc(F)cc1F	0.974
COc1cc(CC/C(C)=N/O)ccc1OCc1ccc(Cl)cc1Cl	0.993

## Input Which measured normalized growth value corresponds to O=C(CCn1c(=O)oc2ccccc21)Sc1ccc(Cl)cc1Cl ?
## Output 0.92

## Input Which measured normalized growth value corresponds to CC1(C)c2ccccc2N(CCC(N)=O)C12C=Cc1c(ccc3ccccc13)O2 (stereo not given) ?
## Output 0.963

## Input Which measured normalized growth value corresponds to O=C(CCn1c(=O)oc2ccccc21)Sc1ccc(C(F)(F)F)cc1 ?
## Output 0.93

## Input Which measured normalized growth value corresponds to O=S(=O)(Nc1ccc(Oc2ccc(OC(F)(F)F)cc2)cc1)c1cccc(Cl)c1 ?
## Output 0.969

## Input Which measured normalized growth value corresponds to CC(C)(C)C(=O)/C(C#N)=C/c1c(Cl)cccc1Cl ?
## Output 0.949

###

protocol_notes: chemical genetic growth profiling, strain panel (AID 1159580)
assay_setup: S. cerevisiae deletion strains, growth OD, locus YPR111W, strain DBF20, active compounds read low
About 2,000 (36%) of roughly 5,500 compounds were called active. Roughly 18% stayed inconclusive and do not appear here. Some of the results follow.
Item-by-item account of normalized growth
# answer = number (no unit)

molecule	normalized growth
S=C(NNc1ccccc1)Nc1cc(Cl)ccc1Cl	0.973
COc1ccc(CC2CCC(=NOC(=O)c3c(Cl)cccc3Cl)CC2)cc1 (stereo unspecified)	1.04
COc1ccc(CC2CCC(=NOC(=O)c3ccc(C(C)(C)C)cc3)CC2)cc1 (stereo unspecified)	0.98
Cc1c(S(=O)(=O)c2ccc(Cl)cc2)csc1C(=O)NNc1cccc(Cl)c1	0.952
O=[N+]([O-])c1ccc(-c2csc(Nc3ccncc3)n2)cc1	0.969

## Input Which measured normalized growth value corresponds to S=C(Nc1cc(Cl)c(Cl)cc1Cl)Nc1ccccc1Br ?
## Output 0.935

###

protocol_notes: chemical genetic growth profiling, strain panel (AID 1159580)
assay_setup: S. cerevisiae deletion strains, growth OD, locus YKL085W, strain MDH1 (second series), active compounds read low
About 2,000 (36%) of roughly 5,500 compounds were called active. About 18% were inconclusive and are not listed. Some of the results follow.
Item-by-item account of normalized growth

Previously resolved entries follow.
compound	endpoint_value
COc1cc(C(=O)O)c2c(c1C)OC(=O)c1c(C)cc(O)c(C=O)c1O2	0.911 (active)
C=C1C2CC[C@@]3(C)[C@H](c4ccoc4)OC(=O)C[C@]13O[C@H]1CC(=O)C(C)(C)C(CC(=O)OC)[C@@]21C (some centres not stated)	0.989 (inactive)
C[C@@H]1O[C@@H](O[C@H]2C[C@@H](O)[C@]3(CO)C4C(CC[C@]3(O)C2)[C@@]2(O)CC[C@H](C3=CC(=O)OC3)[C@@]2(C)C[C@H]4O)[C@H](O)[C@H](O)[C@H]1O (some centres not stated)	0.993 (inactive)
C[C@@H](N)[C@@H](O)c1ccccc1	0.998 (inactive)
CN(C)CCOC(=O)C(c1ccccc1)C1(O)CCCC1 (configuration not stated)	1.04 (inactive)
NC(N)=O	0.994 (inactive)
C[C@H](N)[C@H](O)c1cccc(O)c1	0.984 (inactive)
CC(=O)O[C@H]1C[C@@H](OC(C)=O)C(C)(C)C2CC(=O)[C@]3(C)C(CC[C@@]4(C)[C@H](c5ccoc5)OC(=O)[C@H]5O[C@]543)[C@]21C (some centres not stated)	1.01 (inactive)
C=C1C(C2(C)C=CC(=O)C(C)(C)C2CC(=O)OC)CC[C@@]2(C)[C@H](c3ccoc3)OC(=O)C3OC132 (some centres not stated)	1 (inactive)
COc1cc([C@H]2Oc3cc([C@H]4Oc5cc(O)cc(O)c5C(=O)[C@@H]4O)ccc3O[C@@H]2CO)ccc1O	1.02 (inactive)

## Input Which measured normalized growth value corresponds to CN[C@@H]1[C@H](OC2[C@H](O[C@H]3[C@H](O)[C@@H](O)[C@H](N=C(N)N)[C@@H](O)[C@@H]3N=C(N)N)O[C@@H](C)[C@]2(O)C=O)O[C@@H](CO)[C@H](O)[C@H]1O (some centres not stated) ?
## Output 1 (inactive)

## Input Which measured normalized growth value corresponds to CCN(CC)CCOC(=O)C(c1ccccc1)c1ccccc1 ?
## Output 0.994 (inactive)

## Input Which measured normalized growth value corresponds to NCC(CC(=O)O)c1ccc(Cl)cc1 (configuration not stated) ?
## Output 0.991 (inactive)

###

protocol_notes: chemical genetic growth profiling, strain panel (AID 1159580);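 also: tested at 20 µM; growth read once vehicle control cultures reached saturation at 30 °C; 1 = growth at the plate median or of vehicle wells; lower values mean less growth of the strain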
assay_setup: S. cerevisiae deletion strains, growth OD, locus YML124C, strain tub3, active compounds read low
Out of some 5,500 compounds screened, about 2,000 (36%) were called active. About 18% were inconclusive and are not listed. The list shows a part of the results.
Item-by-item account of normalized growth
# answer = number (no unit)

Previously resolved entries follow.
compound	endpoint_value
C=C1C(C2(C)C=CC(=O)C(C)(C)C2CC(=O)OC)CC[C@@]2(C)[C@H](c3ccoc3)OC(=O)C3OC132 (some centres undefined)	0.988
C=C1C2CCC3(C)C(c4ccoc4)OC(=O)CC13OC1CC(OC(C)=O)C(C)(C)C(CC(=O)OC)C12C (centres undefined)	0.993
C=C1[C@H]2CC[C@@]3(C)[C@H](c4ccoc4)OC(=O)C[C@]13O[C@H]1C[C@H](O)C(C)(C)[C@H](CC(=O)OC)[C@]12C	1.02

Turning now to a further record.
## Input Which measured normalized growth value corresponds to CC(=O)OCC(=O)[C@@]1(O)[C@H](OC(C)=O)CC2C3CCC4=CC(=O)C=C[C@]4(C)[C@@]3(F)[C@@H](O)C[C@@]21C (some centres undefined) ?
## Output 0.991

###

Item-by-item account of normalized growth
protocol_notes: chemical genetic growth profiling, strain panel (AID 1159580);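 also: tested at 20 µM; growth read once vehicle control cultures reached saturation at 30 °C; 1 = growth at the plate median or of vehicle wells; lower values mean less growth of the strain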
assay_setup: S. cerevisiae deletion strains, growth OD, locus YER167W, strain BCK2, active compounds read low
Hit rate of the full screen: of about 5,500 compounds, about 2,000 (36%) were called active. About 18% were inconclusive and are not listed. This is one part of the list.
# answer = number (no unit)

molecule	normalized growth
CCCCCC1C(=O)CCC1CC(=O)OC (stereo not drawn)	0.97

## Input Which measured normalized growth value corresponds to C=C1C2CCC3(C)C(c4ccoc4)OC(=O)CC13OC1CC(OC(C)=O)C(C)(C)C(CC(=O)OC)C12C (stereo not drawn) ?
## Output 1.01

## Input Which measured normalized growth value corresponds to C[C@@H](N)[C@@H](O)c1ccccc1 ?
## Output 0.999

## Input Which measured normalized growth value corresponds to CC(=O)O[C@H]1C[C@@H](OC(C)=O)C(C)(C)C2CC(=O)[C@]3(C)C(CC[C@@]4(C)[C@H](c5ccoc5)OC(=O)[C@H]5O[C@]543)[C@]21C (stereo partly drawn) ?
## Output 0.997

## Input Which measured normalized growth value corresponds to C[C@H](N)[C@H](O)c1ccccc1 ?
## Output 1

###

protocol_notes: chemical genetic growth profiling, strain panel (AID 1159580);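 also: tested at 20 µM; growth read once vehicle control cultures reached saturation at 30 °C; 1 = growth at the plate median or of vehicle wells; lower values mean less growth of the strain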
assay_setup: S. cerevisiae deletion strains, growth OD, locus YDL214C, strain PRR2
Out of some 5,500 compounds screened, about 2,000 (36%) were called active. About 18% were inconclusive and are not listed. No stated cut-off is given here; in the data, active means normalized growth mostly below about 0.91 (no sharp cut-off); inconclusive means no clear call, values can overlap the other calls; inactive means mostly above about 0.92. Some of the results follow.
Assign a class; possible classes are active, inactive

compound	discrete_label
O=C(NNc1ccc(Cl)cc1)c1ccc(F)cc1F	inactive
O=C(Nc1ccc(Cl)cc1)O/N=C\c1ccn(-c2ccccc2)n1	inactive
C/C(=N/Nc1ccccc1)c1cc(Cl)cc(Cl)c1O	inactive
O=S(=O)(Nc1ccc(Oc2ccc(OC(F)(F)F)cc2)cc1)c1cccc(Cl)c1	inactive
COc1ccc(OC)c(-c2ccn[nH]2)c1OCc1ccccc1	inactive
COc1ccc(CC2CCC(=NOC(=O)c3ccc(C(C)(C)C)cc3)CC2)cc1 (stereo unspecified)	inactive
O=C(CCn1c(=O)oc2ccccc21)Sc1ccc(Cl)cc1Cl	active
Oc1ccc(N=Nc2ccccn2)c(O)c1	active

## Input What outcome does the record of this test show for O=C1/C(=C/c2ccc(C(F)(F)F)cc2)COc2ccccc21 ?
## Output inactive

## Input What outcome does the record of this test show for COc1cc(CC/C(C)=N\O)ccc1OCc1ccc(Cl)c(Cl)c1 ?
## Output inactive

## Input What outcome does the record of this test show for COc1ccc(CC2CCC(=NOC(=O)c3c(Cl)cccc3Cl)CC2)cc1 (stereo unspecified) ?
## Output inactive

meta.source: PubChem BioAssay AID1159580
